This collection of values is drawn from the OligoGym collection.

system_under_test: ANGPTL2
test_context: ASO, 25 µM
After the bases stand the sugars from the 5' end (letter, count) and the backbone: PS all phosphorothioate, else s phosphorothioate and o phosphodiester by linkage. Methylation of C is not given here. l = locked nucleic acid (LNA); d = 2'-deoxy (DNA)
reported_endpoint: target mRNA inhibition

Data request: What measured target mRNA inhibition goes with CCAGTTCCTGAAGAAGTTA (sugars l1 d15 l3, PS) ?
Data returned: 30.1%

###

system_under_test: APOL1
test_context: ASO, A431, 0.25 µM
After the bases stand the sugars from the 5' end (letter, count) and the backbone: PS all phosphorothioate, else s phosphorothioate and o phosphodiester by linkage. Methylation of C is not given here. e = 2'-O-(2-methoxyethyl) (MOE); k = constrained ethyl (cEt); d = 2'-deoxy (DNA)
Is target mRNA inhibition at least 80%? Then criterion met. If not, criterion not met.

TTTGTAAGTGCAACCA (sugars kkddddekekeddddd, PS); criterion met

Data request: Kindly determine if target mRNA inhibition recorded for CTTTATACCAGTGTCT (sugars kekddddeekkddddd, PS) is above or exactly 80%.
Data returned: criterion not met

Data request: Okay, and GCATTCAGAATTTCCA (sugars k3 d4 k3 e1 d5, PS) ?
Data returned: criterion met

###

system_under_test: HTRA1
test_context: ASO, U251, 5 µM
After the bases stand the sugars from the 5' end (letter, count) and the backbone: PS all phosphorothioate, else s phosphorothioate and o phosphodiester by linkage. Methylation of C is not given here. l = locked nucleic acid (LNA); d = 2'-deoxy (DNA)
Assign 1 whenever target mRNA inhibition does not fall below 60%; assign 0 whenever it does.

GCTTCTTCTATCTACGCA (sugars l1 d15 l2, PS); 0
GTATCGACTGCATTAG (sugars l4 d8 l4, PS); 1
ATCGACTGCATTAGTT (sugars l4 d9 l3, PS); 1
ACTCAGTTAAAGGAGGAGA (sugars l4 d13 l2, PS); 0
TCTTCTATCTACGCAT (sugars l4 d9 l3, PS); 1

Data request: Could you verify whether the entry TGATGACTCAGTTAAAGG (sugars l3 d11 l4, PS) shows target mRNA inhibition of no less than 60%?
Data returned: 1

Data request: Also, ATTGTATCGACTGCAT (sugars l3 d10 l3, PS) please.
Data returned: 1

Data request: Here is the next sequence: ATTGTATCGACTGCATTAG (sugars l2 d13 l4, PS)
Data returned: 1

Data request: Proceed to ACTCAGTTAAAGGAGGAG (sugars l2 d12 l4, PS)
Data returned: 0

Data request: For CAATGTGTAAGAAGTAC (sugars l4 d9 l4, PS) then?
Data returned: 1

Data request: Also TCGACTGCATTAGTTG (sugars l4 d8 l4, PS) , if possible.
Data returned: 1

###

system_under_test: APOL1
test_context: ASO, A431, 2 µM
After the bases stand the sugars from the 5' end (letter, count) and the backbone: PS all phosphorothioate, else s phosphorothioate and o phosphodiester by linkage. Methylation of C is not given here. e = 2'-O-(2-methoxyethyl) (MOE); k = constrained ethyl (cEt); d = 2'-deoxy (DNA)
Label t when target mRNA inhibition >= 90%; otherwise f.

Data request: Threshold query (target mRNA inhibition >= 90%) on GTATTTCTTGATGTGG (sugars kkddddkdkdkddddd, PS)
Data returned: f

Data request: Another: GTGTTATATTTGATCC (sugars k2 d4 e3 k2 d5, PS)
Data returned: t

Data request: Entry GCTTTAAACTCAGGTG (sugars k2 d4 e4 k2 d4, PS) please
Data returned: t

Data request: Field entry: GAATTATGGAATTGCA (sugars kkddddkekekkdddd, PS)
Data returned: f

Data request: Same question for TTTGTAAGTGCAACCA (sugars kkkddddkekekdddd, PS) please.
Data returned: f

Data request: Then what about the sequence CGTCAATATATTCTTT (sugars kkddddkekekddddd, PS) ?
Data returned: t

Data request: Now consider TTGTAAGTGCAACCAA (sugars k2 d4 e3 k2 d5, PS) .
Data returned: f

Data request: Likewise for TTTGTAAGTGCAACCA (sugars kkddddkekekddddd, PS) ?
Data returned: t

Data request: Cool, now CTGAAGATTGGCTCTG (sugars kkddddekekeddddd, PS)
Data returned: f

###

system_under_test: APOL1
test_context: ASO, A431, 0.0156 µM
After the bases stand the sugars from the 5' end (letter, count) and the backbone: PS all phosphorothioate, else s phosphorothioate and o phosphodiester by linkage. Methylation of C is not given here. e = 2'-O-(2-methoxyethyl) (MOE); k = constrained ethyl (cEt); d = 2'-deoxy (DNA)
// label = T if target mRNA inhibition is not less than 30%, otherwise F

Before answering, review these 6 worked examples.
GTTATGAAATTATTGG (sugars kkkddddkekeddddd, PS); F
TCCGTCAATATATTCT (sugars k2 d4 e3 k2 d5, PS); F
TGGTTCAAAAGCAGCA (sugars k2 d4 e3 k2 d5, PS); T
CTTTATACCAGTGTCT (sugars kekddddeekkddddd, PS); F
TCAGATGGGTACTTCT (sugars kkddddekekeddddd, PS); F
TATTTCTTGATGTGGT (sugars kkkddddkekekdddd, PS); F

Data request: # check: target mRNA inhibition of GCTAATTTTCTGACTG (sugars kkddddkekekddddd, PS) is greater than or equal to 30%
Data returned: F

Data request: # iterate: TTTGTAAGTGCAACCA (sugars kkddddekekeddddd, PS)
Data returned: F

Data request: # repeat for GCATTCAGAATTTCCA (sugars k3 d4 k3 e1 d5, PS)
Data returned: T

Data request: Record: GTGTTATATTTGATCC (sugars k3 d4 k3 e1 d5, PS)
Data returned: T

###

system_under_test: ANGPTL2
test_context: ASO, 25 µM
After the bases stand the sugars from the 5' end (letter, count) and the backbone: PS all phosphorothioate, else s phosphorothioate and o phosphodiester by linkage. Methylation of C is not given here. l = locked nucleic acid (LNA); d = 2'-deoxy (DNA)
The threshold is inclusive: target mRNA inhibition of exactly 60% counts as Fulfilled; values below receive Not fulfilled.

These solved cases illustrate the format of a correct answer.
GCAGCTCATTGTTGAGCA (sugars l1 d15 l2, PS); Not fulfilled
GTAGGTAGGCGAGGAG (sugars l2 d12 l2, PS); Not fulfilled
GATGATGCGGTTGTAGGT (sugars l1 d15 l2, PS); Fulfilled
CCACACCCAACATTTTA (sugars l2 d13 l2, PS); Fulfilled
TTATAGGGTGGAATAAA (sugars l4 d9 l4, PS); Not fulfilled

Data request: Please tell me: is the sequence GTGCCAAATCCTAGACA (sugars l2 d13 l2, PS) at or over 60% in terms of target mRNA inhibition?
Data returned: Fulfilled

###

Recorded measurements of target mRNA inhibition, one per entry
system_under_test: APOL1
test_context: ASO, A431, 0.25 µM
After the bases stand the sugars from the 5' end (letter, count) and the backbone: PS all phosphorothioate, else s phosphorothioate and o phosphodiester by linkage. Methylation of C is not given here. e = 2'-O-(2-methoxyethyl) (MOE); k = constrained ethyl (cEt); d = 2'-deoxy (DNA)

// below: answered sequences
TCACATACTCTCTGGG (sugars k4 d9 k3, PS); 62%
GTTTCATATTCACCCG (sugars k4 d9 k3, PS); 92%
TTTCATATTCACCCGA (sugars k4 d9 k3, PS); 68%
GTGTTATATTTGATCC (sugars k3 d4 k3 e1 d5, PS); 84%
TCCGTCAATATATTCT (sugars k2 d4 e3 k2 d5, PS); 84%

Data request: Form field: reported target mRNA inhibition of TCAGATGGGTACTTCT (sugars kkddddekekeddddd, PS)
Data returned: 61%

Data request: And the next one, CGTCAATATATTCTTT (sugars kkddddkekekddddd, PS) ?
Data returned: 75%

Data request: Same thing, different sequence: GCTAATTTTCTGACTG (sugars kkddddkekekddddd, PS)
Data returned: 86%

###

system_under_test: APOL1
test_context: ASO, A431, 1 µM
After the bases stand the sugars from the 5' end (letter, count) and the backbone: PS all phosphorothioate, else s phosphorothioate and o phosphodiester by linkage. Methylation of C is not given here. k = constrained ethyl (cEt); d = 2'-deoxy (DNA)
target mRNA inhibition reference
Write down the numeric answer in % and omit the unit.

Data request: Query for APOL1: what target mRNA inhibition does the record show for CTGTTCTAACTCTTGG (sugars k4 d9 k3, PS) ?
Data returned: 87

###

# target mRNA inhibition listing for each entry below
system_under_test: IRF5
test_context: ASO, KARPAS-229, 12 µM
After the bases stand the sugars from the 5' end (letter, count) and the backbone: PS all phosphorothioate, else s phosphorothioate and o phosphodiester by linkage. Methylation of C is not given here. e = 2'-O-(2-methoxyethyl) (MOE); k = constrained ethyl (cEt); d = 2'-deoxy (DNA)
Write the answer as a number in %, unit excluded.

The examples below pair each entry with its known result.
GGTTCTTGGACTCTCA (sugars kkddddddddddkeke, PS); 84
CCATTCTATGCCTTTT (sugars k3 d9 k3 e1, PS); 78
TATTTCTGCTCCAGGT (sugars k2 d9 e3 k2, PS); 83
GAATTTTGTGACTGTA (sugars k3 d10 k3, PS); 78

We next turn to a different sequence, shown below.
Data request: Form field: reported target mRNA inhibition of CGGTCTTTGAGGTCTG (sugars kkddddddddddkeke, PS)
Data returned: 57
